These data points were gathered from paper PMC9607427.

Recorded IC50 values for a group of compounds are listed next.
- Tested on: BJLD (human lung fibroblast doxorubicin-resistant)
- Assay Procedure: Cytotoxic MTS assay, BJLD
- Format: cell-based
- Description: In vitro cytotoxic activity of final compounds 5–82 was evaluated after 3 days of incubation against eight cell lines derived from human solid tumors including lung (A549 cells) and colon (HCT116 and HCT116p53−/−) carcinomas, as well as leukemia cell lines (CCRF-CEM, CEM-DNR, K562, and K562-TAX) and osteosarcoma (U2OS cells). […] Cytotoxic activity was determined by MTS assay following 72 h of incubation. […]

Smiles	IC50
COc1ccc(C(=O)OCCCS(=O)(=O)c2cc[n+]([O-])c3cc(Cl)ccc23)cc1[N+](=O)[O-]	12 µM
COc1ccc(OC)c(C(=O)OCCCS(=O)(=O)c2cc[n+]([O-])c3cc(Cl)ccc23)c1	17.8 µM
COc1ccccc1C(=O)OCCS(=O)(=O)c1cc[n+]([O-])c2cc(Cl)ccc12	10.1 µM
O=C(OCCCS(=O)(=O)c1cc[n+]([O-])c2cc(Cl)ccc12)c1ccc(C(F)(F)F)cc1	13.9 µM
COc1cc(C(=O)OCCCS(=O)(=O)c2cc[n+]([O-])c3cc(Cl)ccc23)cc(OC)c1OC	21.6 µM
Cc1ccc([N+](=O)[O-])c(C(=O)OCCS(=O)(=O)c2cc[n+]([O-])c3cc(Cl)ccc23)c1	> 50 µM
COc1ccc(C(=O)OCCS(=O)(=O)c2cc[n+]([O-])c3cc(Cl)ccc23)cc1[N+](=O)[O-]	19.5 µM
Cc1cc(C)cc(C(=O)OCCCS(=O)(=O)c2cc[n+]([O-])c3cc(Cl)ccc23)c1	25.4 µM
COc1ccccc1C(=O)OCCCS(=O)(=O)c1cc[n+]([O-])c2cc(Cl)ccc12	19.7 µM
COc1ccc(C(=O)OCCS(=O)(=O)c2cc[n+]([O-])c3cc(Cl)ccc23)cc1	12.1 µM
Cc1ccc([N+](=O)[O-])c(C(=O)OCCCS(=O)(=O)c2cc[n+]([O-])c3cc(Cl)ccc23)c1	15.9 µM
COc1cc(OC)c(C(=O)OCCCS(=O)(=O)c2cc[n+]([O-])c3cc(Cl)ccc23)cc1OC	24.4 µM
COc1ccc(OC)c(C(=O)OCCS(=O)(=O)c2cc[n+]([O-])c3cc(Cl)ccc23)c1	9.68 µM
O=C(OCCS(=O)(=O)c1cc[n+]([O-])c2cc(Cl)ccc12)c1ccc(C(F)(F)F)cc1	27 µM
COc1ccc(C(=O)OCCCS(=O)(=O)c2cc[n+]([O-])c3cc(Cl)ccc23)cc1	10.7 µM
